compounds and their reported MIC
# Tested on: Candida albicans
# assay-overview: In vitro antifungal activity against human pathogenic fungi, Candida albicans
# Type: functional

Given the entry CC(=O)N1CCN(c2ccc(OC[C@H]3CO[C@](Cn4ccnc4)(c4ccc(Cl)cc4Cl)O3)cc2)CC1 [KETOCONAZOLE] , report its measured MIC.
0.3 µg/mL

Please give the result for "CSc1nc(Nc2ccc(Cl)cc2)c(C#N)c(-c2ccc(F)cc2)n1" too.
> 100 µg/mL

What do you get for "CSc1nc(Cl)c(C#N)c(-c2ccc(F)cc2)n1" ?
> 100 µg/mL

Another compound to look at: "CSc1nc(Cl)c(C#N)c(-c2cccc(F)c2)n1"
> 100 µg/mL

Further, for "CSc1nc(Cl)c(C#N)c(SC)n1" ?
> 100 µg/mL

Same question for "CCSc1nc(Cl)c(C#N)c(-c2cccc(F)c2)n1" please.
> 100 µg/mL

Field entry: "CSc1nc(Nc2ccc(Cl)cc2)c(C#N)c(-c2cccc(F)c2)n1"
> 100 µg/mL

Now this one: "CSc1nc(Cl)c(C#N)c(-c2ccc(Cl)cc2)n1"
> 100 µg/mL

* * *

# System: Candida albicans
# assay-overview: In vitro antifungal activity against human pathogenic fungi, Candida albicans
# Type: functional
readout-name: MIC

CSc1nc(-c2ccccc2)nc(Cl)c1C#N | > 100 µg/mL
CSc1ncnc(Cl)c1C#N | 25 µg/mL
CSc1nc(S)c(C#N)c(-c2cccc(F)c2)n1 | > 100 µg/mL
CSc1nc(Cl)c(C#N)c(-c2cccc(Cl)c2)n1 | > 100 µg/mL
COc1ccc(-c2nc(SC)nc(Cl)c2C#N)cc1 | > 100 µg/mL
CSc1nc(SCc2ccccc2)nc(Cl)c1C#N | 50 µg/mL

Given "CCc1nc(Cl)c(C#N)c(SC)n1" , state its recorded MIC.
25 µg/mL

# iterate: "COc1ccc(-c2nc(SC)nc(Nc3ccc(Cl)cc3)c2C#N)cc1"
> 100 µg/mL
